- tgt: T1, recombinant human TfR (r human TfR: Sino Biological Inc.) (human, UniProt P02786 89-760)
- T1 construct: Bought product; also called r human TfR-ECD (Histag); hTfR; not shown: histidine tag attached to the N-terminus
- method: BLI (Octet RED96), His-tagged TfR ECD loaded on Ni-NTA sensor, antibody as analyte
Listing of entries alongside the reported koff.
Kindly provide the numeric value in s⁻¹ only, without the unit symbol.

anti-hTfR antibody No. 9 (antibody, V domains shown, Mouse hybridoma antibody purified on Protein G; also called mouse anti-hTfR antibody No. 9; product of Clone 9 line) VH: EVQLQESGPELKKPGETVKISCKASGYTFTNYGVSWVKQAPGKDLKWMGWIYTFTGEATYIDDFRGRFAFSLETSANTAYLQINNLKNEDTATYFCSRRNGAWFEDWGQGTLVTVSA VL: DIVLTQSPALMSASPGETVTMTCSASSSVSLMFWYQQKPRSSPKPWIYFTSYRASGVPIRFSGSGSGTSFSLTISNLEAEDAATYYCQQWTSDPPTFGSGTKLEIE :: 9.46e-05

Recorded koff (binder anti-hTfR antibody No. 2 (antibody, V domains shown, Mouse hybridoma antibody purified on Protein G; also called mouse anti-hTfR antibody No. 2; product of Clone 2 line) VH: EVQLQESGAELVRPGVSVKISCKGSGYTFTDYVMHWVRQSHAKSLEWIGVISTYYGHGSYNQRFKGKATMTVDKSSSTAYLELVRLTSEDSAIYYCVRGGYGSSSLAGNFDVWGAGTTVTVSS VL: DIVLTQSPATLSVTPGDSVSLSCRASQSISNNLQWYQQKSHESPRLLIKYASQSISGIPSRFSGSGSGTDFTLSINSVETEDFGMYFCQQSNSWPRTFGAGTKLELKR ): 1.23e-05
